Target Or System: cKit (h) (Homo sapiens)
Construct: purchased Millipore
Method Description: Kinase Profiling Assay
Type: biochemical
Condition Details: 100 μM
Listed sequences paired with reported % activity
Quantity Measured: % activity

polymer_sequence="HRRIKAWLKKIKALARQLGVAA (Mammalian) [MMI-0500]" assay_result=45%
polymer_sequence="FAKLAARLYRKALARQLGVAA [MMI-0300]" assay_result=53%
polymer_sequence="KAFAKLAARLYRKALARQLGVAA [MMI-0400]" assay_result=43%
polymer_sequence="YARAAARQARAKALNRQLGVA (Mammalian) [MMI-0200]" assay_result=110%

###

Target Or System: RIPK2 (h) (Homo sapiens, UniProt O43353)
Sequence (O43353 whole entry): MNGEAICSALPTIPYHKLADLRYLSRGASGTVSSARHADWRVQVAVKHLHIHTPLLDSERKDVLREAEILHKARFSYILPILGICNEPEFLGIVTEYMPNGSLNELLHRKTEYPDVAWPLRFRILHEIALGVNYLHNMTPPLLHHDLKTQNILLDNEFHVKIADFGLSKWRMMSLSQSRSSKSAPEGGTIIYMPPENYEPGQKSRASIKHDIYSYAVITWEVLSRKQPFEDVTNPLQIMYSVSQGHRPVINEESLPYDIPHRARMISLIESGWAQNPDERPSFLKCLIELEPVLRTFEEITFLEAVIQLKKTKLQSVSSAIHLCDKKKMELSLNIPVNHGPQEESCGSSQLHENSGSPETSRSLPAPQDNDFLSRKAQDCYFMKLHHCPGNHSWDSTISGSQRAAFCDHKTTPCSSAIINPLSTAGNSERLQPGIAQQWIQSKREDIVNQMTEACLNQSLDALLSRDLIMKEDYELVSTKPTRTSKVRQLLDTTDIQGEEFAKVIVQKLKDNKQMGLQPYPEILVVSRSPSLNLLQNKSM
Method Description: Kinase Profiling Assay
Assay type: biochemical
Condition Details: 100 μM
Listed sequences paired with reported % activity
Quantity Measured: % activity (%)

polymer_sequence="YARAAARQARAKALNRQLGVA (Mammalian) [MMI-0200]" target_or_system="RIPK2 (h) (Homo sapiens, UniProt O43353)" quantity_measured="% activity" scale_unit=% assay_result=98
polymer_sequence="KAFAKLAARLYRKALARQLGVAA [MMI-0400]" target_or_system="RIPK2 (h) (Homo sapiens, UniProt O43353)" quantity_measured="% activity" scale_unit=% assay_result=98
polymer_sequence="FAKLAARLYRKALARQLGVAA [MMI-0300]" target_or_system="RIPK2 (h) (Homo sapiens, UniProt O43353)" quantity_measured="% activity" scale_unit=% assay_result=97
polymer_sequence="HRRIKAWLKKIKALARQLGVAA (Mammalian) [MMI-0500]" target_or_system="RIPK2 (h) (Homo sapiens, UniProt O43353)" quantity_measured="% activity" scale_unit=% assay_result=30

###

Target Or System: CDK5/p25 (h) (Homo sapiens)
Construct: purchased Millipore
Sequence (Q00535 whole entry): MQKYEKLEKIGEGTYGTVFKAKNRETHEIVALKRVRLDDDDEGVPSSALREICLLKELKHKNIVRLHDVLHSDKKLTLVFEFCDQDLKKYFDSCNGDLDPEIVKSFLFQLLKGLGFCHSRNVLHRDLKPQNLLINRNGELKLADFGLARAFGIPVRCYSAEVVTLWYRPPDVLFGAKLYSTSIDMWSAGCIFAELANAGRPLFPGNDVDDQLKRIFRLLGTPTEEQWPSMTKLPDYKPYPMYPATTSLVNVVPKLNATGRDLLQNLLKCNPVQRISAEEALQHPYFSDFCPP
Sequence (Q15078 99-307 partner limits assumed): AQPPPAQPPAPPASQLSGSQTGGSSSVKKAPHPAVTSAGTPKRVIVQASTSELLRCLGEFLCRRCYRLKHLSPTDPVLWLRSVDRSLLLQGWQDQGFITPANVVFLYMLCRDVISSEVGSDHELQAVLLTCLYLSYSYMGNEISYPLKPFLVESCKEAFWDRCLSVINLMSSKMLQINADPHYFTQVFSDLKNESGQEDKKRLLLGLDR
Method Description: Kinase Profiling Assay
Assay type: biochemical
Condition Details: 100 μM
Procedure: Every kinase activity measurement was conducted in duplicate. Specifically, in these assays, a positively charged substrate is phosphorylated with a radiolabeled phosphate group from an ATP if the kinase is not inhibited by an inhibitor peptide. The positively charged substrate then is attracted to a negatively charged filter membrane, quantified with a scintillation counter, and compared to a 100% activity control. […]
Listed sequences paired with reported % activity
Quantity Measured: % activity (%)

polymer_sequence="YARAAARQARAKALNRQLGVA (Mammalian) [MMI-0200]" scale_unit=% assay_result=97
polymer_sequence="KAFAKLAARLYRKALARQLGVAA [MMI-0400]" scale_unit=% assay_result=92
polymer_sequence="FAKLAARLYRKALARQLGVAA [MMI-0300]" scale_unit=% assay_result=89
polymer_sequence="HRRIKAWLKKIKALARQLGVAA (Mammalian) [MMI-0500]" scale_unit=% assay_result=66

###

Target Or System: TBK1 (h) (Homo sapiens)
Sequence (Q9UHD2 1-729): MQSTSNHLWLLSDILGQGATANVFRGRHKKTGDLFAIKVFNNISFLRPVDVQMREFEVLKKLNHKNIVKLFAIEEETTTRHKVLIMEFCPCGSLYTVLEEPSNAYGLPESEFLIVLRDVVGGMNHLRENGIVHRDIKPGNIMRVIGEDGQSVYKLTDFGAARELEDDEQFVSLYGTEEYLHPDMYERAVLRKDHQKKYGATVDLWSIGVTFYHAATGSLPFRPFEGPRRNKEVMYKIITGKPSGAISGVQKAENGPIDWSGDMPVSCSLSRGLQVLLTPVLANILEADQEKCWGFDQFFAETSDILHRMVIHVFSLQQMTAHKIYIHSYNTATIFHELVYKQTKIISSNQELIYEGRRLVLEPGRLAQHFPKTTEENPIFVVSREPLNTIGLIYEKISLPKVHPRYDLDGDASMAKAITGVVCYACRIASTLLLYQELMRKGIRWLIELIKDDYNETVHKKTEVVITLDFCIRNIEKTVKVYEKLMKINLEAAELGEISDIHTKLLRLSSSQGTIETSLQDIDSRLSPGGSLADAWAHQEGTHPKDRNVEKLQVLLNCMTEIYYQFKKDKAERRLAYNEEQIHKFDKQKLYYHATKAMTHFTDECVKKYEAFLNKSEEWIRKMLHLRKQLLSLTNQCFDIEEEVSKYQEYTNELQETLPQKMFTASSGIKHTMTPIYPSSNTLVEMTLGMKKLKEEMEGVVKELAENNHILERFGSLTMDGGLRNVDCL
Method Description: Kinase Profiling Assay
Assay type: biochemical
Condition Details: 100 μM
Experimental: Every kinase activity measurement was conducted in duplicate. Specifically, in these assays, a positively charged substrate is phosphorylated with a radiolabeled phosphate group from an ATP if the kinase is not inhibited by an inhibitor peptide. The positively charged substrate then is attracted to a negatively charged filter membrane, quantified with a scintillation counter, and compared to a 100% activity control. […]
Listed sequences paired with reported % activity
Quantity Measured: % activity

polymer_sequence="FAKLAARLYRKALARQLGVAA [MMI-0300]" assay_result=37%
polymer_sequence="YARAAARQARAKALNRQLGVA (Mammalian) [MMI-0200]" assay_result=98%
polymer_sequence="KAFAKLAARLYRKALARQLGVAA [MMI-0400]" assay_result=39%
polymer_sequence="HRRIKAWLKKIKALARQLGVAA (Mammalian) [MMI-0500]" assay_result=16%

###

Target Or System: PKCζ (h) (Homo sapiens)
Sequence (Q05513 1-592): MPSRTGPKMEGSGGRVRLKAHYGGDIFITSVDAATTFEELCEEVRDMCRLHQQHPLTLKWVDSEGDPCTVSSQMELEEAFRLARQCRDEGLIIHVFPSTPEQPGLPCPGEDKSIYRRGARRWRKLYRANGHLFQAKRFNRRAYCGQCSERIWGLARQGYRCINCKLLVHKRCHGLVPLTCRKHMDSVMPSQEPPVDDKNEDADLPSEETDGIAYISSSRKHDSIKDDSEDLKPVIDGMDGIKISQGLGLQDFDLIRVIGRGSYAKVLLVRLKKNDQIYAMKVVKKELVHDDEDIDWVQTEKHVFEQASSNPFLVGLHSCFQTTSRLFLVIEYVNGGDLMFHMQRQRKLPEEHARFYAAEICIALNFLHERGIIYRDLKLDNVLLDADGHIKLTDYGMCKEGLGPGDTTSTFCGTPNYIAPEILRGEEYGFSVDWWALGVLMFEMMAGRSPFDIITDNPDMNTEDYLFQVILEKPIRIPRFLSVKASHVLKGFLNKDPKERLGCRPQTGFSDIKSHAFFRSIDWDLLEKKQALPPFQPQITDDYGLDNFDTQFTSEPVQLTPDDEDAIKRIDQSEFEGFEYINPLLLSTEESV
Method Description: Kinase Profiling Assay
Type: biochemical
Condition Details: 100 μM
Listed sequences paired with reported % activity
Quantity Measured: % activity (%)

polymer_sequence="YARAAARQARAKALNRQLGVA (Mammalian) [MMI-0200]" assay_result=98
polymer_sequence="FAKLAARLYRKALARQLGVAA [MMI-0300]" assay_result=81
polymer_sequence="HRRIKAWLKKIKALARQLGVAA (Mammalian) [MMI-0500]" assay_result=7
polymer_sequence="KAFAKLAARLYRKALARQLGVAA [MMI-0400]" assay_result=75

###

Listed sequences paired with reported % activity
Target Or System: CHK2(R145W) (h) (Homo sapiens, UniProt O96017, R145W)
Construct: purchased Millipore
Sequence (O96017 whole entry R145W): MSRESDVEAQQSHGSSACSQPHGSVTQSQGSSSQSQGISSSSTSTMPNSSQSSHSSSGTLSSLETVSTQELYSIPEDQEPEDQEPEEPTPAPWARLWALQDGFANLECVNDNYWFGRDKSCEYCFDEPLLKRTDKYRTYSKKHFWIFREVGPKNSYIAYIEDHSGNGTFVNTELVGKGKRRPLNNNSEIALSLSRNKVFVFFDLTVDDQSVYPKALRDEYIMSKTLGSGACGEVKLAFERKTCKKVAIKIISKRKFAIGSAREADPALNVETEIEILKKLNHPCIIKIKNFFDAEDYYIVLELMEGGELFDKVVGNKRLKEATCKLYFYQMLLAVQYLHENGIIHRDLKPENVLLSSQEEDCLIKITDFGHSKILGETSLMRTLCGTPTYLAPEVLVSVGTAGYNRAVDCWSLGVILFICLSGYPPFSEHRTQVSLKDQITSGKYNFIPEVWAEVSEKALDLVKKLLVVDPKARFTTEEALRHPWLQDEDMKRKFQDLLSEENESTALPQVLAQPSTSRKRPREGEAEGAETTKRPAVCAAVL
Method Description: Kinase Profiling Assay
Assay type: biochemical
Condition Details: 100 μM
Quantity Measured: % activity (%)

polymer_sequence="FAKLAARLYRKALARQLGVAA [MMI-0300]" assay_result=33
polymer_sequence="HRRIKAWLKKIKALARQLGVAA (Mammalian) [MMI-0500]" assay_result=3
polymer_sequence="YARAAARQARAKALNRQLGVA (Mammalian) [MMI-0200]" assay_result=81
polymer_sequence="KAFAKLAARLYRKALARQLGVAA [MMI-0400]" assay_result=31

###

Target Or System: PKCε (h) (Homo sapiens)
Construct: purchased Millipore
Sequence (Q02156 1-737): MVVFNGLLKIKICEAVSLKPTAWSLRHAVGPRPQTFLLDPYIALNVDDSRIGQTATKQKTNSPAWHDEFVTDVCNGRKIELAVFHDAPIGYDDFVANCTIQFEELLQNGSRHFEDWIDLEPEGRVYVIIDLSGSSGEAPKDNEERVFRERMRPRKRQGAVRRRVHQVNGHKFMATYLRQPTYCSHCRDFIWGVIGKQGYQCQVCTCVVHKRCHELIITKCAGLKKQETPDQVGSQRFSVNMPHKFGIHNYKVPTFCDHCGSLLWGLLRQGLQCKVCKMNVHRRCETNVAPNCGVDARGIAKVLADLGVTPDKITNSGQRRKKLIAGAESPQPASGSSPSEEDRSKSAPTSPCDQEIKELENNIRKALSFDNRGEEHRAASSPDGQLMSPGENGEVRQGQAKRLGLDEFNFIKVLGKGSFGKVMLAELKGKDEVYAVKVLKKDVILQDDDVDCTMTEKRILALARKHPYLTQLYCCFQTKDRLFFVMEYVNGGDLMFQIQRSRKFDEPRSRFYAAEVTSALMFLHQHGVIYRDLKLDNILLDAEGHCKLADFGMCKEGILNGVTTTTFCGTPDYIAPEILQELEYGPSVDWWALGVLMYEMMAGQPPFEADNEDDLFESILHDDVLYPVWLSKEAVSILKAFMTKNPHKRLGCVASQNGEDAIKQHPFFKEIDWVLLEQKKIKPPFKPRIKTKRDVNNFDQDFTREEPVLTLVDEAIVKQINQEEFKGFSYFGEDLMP
Method Description: Kinase Profiling Assay
Type: biochemical
Condition Details: 100 μM
Listed sequences paired with reported % activity
Quantity Measured: % activity

polymer_sequence="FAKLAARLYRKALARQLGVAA [MMI-0300]" assay_result=79%
polymer_sequence="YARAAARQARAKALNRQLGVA (Mammalian) [MMI-0200]" assay_result=98%
polymer_sequence="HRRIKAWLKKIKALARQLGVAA (Mammalian) [MMI-0500]" assay_result=23%
polymer_sequence="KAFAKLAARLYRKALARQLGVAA [MMI-0400]" assay_result=59%
